Experiment: Solubility by shake-flask method (SFM) with HPLC
Assay type: physicochemical
Conditions: ethanol; 25 °C; n = 3; read-out: Solubility
Peptide text beside a SMILES is read from it. * marks the point of attachment. βGlc = OC[C@H]1O[C@@H](*)[C@H](O)[C@@H](O)[C@@H]1O
property label: solubility (µg/mL)

molecule	observed result
CC[C@H](C)[C@H](NC(=O)[C@H](Cc1ccc(O)cc1)NC(=O)[C@@H](NC(=O)[C@H](CCCNC(=N)N)NC(=O)[C@@H](N)CC(=O)O)C(C)C)C(=O)N[C@@H](Cc1c[nH]cn1)C(=O)N[C@@H](CO[C@@H]1O[C@H](CO)[C@@H](O)[C@H](O)[C@H]1O)C(N)=O [PNA5] (H-DRVYIHS(βGlc)-NH2)	120
